Tested on: AGS cells
Experiment: Cellular reduced glutathione (GSH) content of AGS cells
Assay type: cell-based, human
Conditions: post-confluent AGS, 4 h; 250 µM; control 13.6 ± 0.7
experimental-endpoint: GSH

Please give measured GSH of the following entry: C=C1CCC2[C@](C)(CCC[C@]2(C)C(=O)OC)[C@H]1CC[C@@H](C)CC(=O)OC1=C(CCC(C)C)C(=O)C2=C(CCCC2)C1=O (stereo partly shown)
13.9 ± 0.8 nmol/10^6 cells

====

Assay: Cytotoxicity, neutral red uptake assay, MRC-5
Type: cell-based
Settings: human, MRC-5 lung fibroblasts, confluent monolayer, confluent MRC-5, 24 h, read-out: IC50 ± SD, cytotoxicity MRC-5
Consider the following compounds; for each one, report its IC50 at 24 h.

Please give measured IC50 at 24 h of the following entry: C=C1CCC2[C@](C)(CCC[C@]2(C)C(=O)O)[C@H]1CC[C@@H](C)CC(=O)OC1=C(CCC(C)C)C(=O)c2ccccc2C1=O (stereo partly drawn) [Compound 9, Dihydroprenyl lapachol junicedrate]
449 µM

Please give measured IC50 at 24 h of the following entry: CC(CCC1C(C)CCC2C(C)(C(=O)O)CCCC12C)CC(=O)O (stereo not drawn) [Compound 6, 17β-Dihydrojunicedric acid]
163 µM

Please give measured IC50 at 24 h of the following entry: COC(=O)[C@@]1(C)CCC[C@]2(C)C(CC[C@@H](C)CC(=O)OC3=C(CC=C(C)C)C(=O)c4ccccc4C3=O)=C(C)CCC12 (stereo partly drawn) [Compound 20, Lapachoyl Δ8(9) junicedrate methyl ester]
483 µM

Please give measured IC50 at 24 h of the following entry: CC(C)CCC1=C(O)C(=O)C2=C(CCCC2)C1=O [Compound 3, Dihydroprenyl-5,6,7,8-tetrahydrolapachol]
307 µM

Please give measured IC50 at 24 h of the following entry: CC1=C(CC[C@@H](C)CC(=O)OC2=C(CCC(C)C)C(=O)C3=C(CCCC3)C2=O)[C@@]2(C)CCC[C@](C)(C(=O)O)C2CC1 (stereo partly drawn) [Compound 23]
20 µM

Please give measured IC50 at 24 h of the following entry: COC(=O)[C@@]1(C)CCC[C@]2(C)C(CC[C@@H](C)CC(=O)OC3=C(CCC(C)C)C(=O)C4=C(CCCC4)C3=O)=C(C)CCC12 (stereo partly drawn) [Compound 24]
> 1000 µM

====

Assay: Cytotoxicity, neutral red uptake assay, MRC-5
Format: cell-based
Settings: human, MRC-5 lung fibroblasts, confluent monolayer, confluent MRC-5, 24 h, read-out: IC50 ± SD, cytotoxicity MRC-5
experimental-endpoint: IC50 at 24 h

Please give measured IC50 at 24 h of the following entry: CC(C)CCC1=C(OC(=O)C[C@H](C)CC[C@H]2[C@@H](C)CCC3[C@]2(C)CCC[C@]3(C)C(=O)O)C(=O)c2ccccc2C1=O (stereo partly drawn)
> 1000 µM

Please give measured IC50 at 24 h of the following entry: C=C1CCC2[C@](C)(CCC[C@]2(C)C(=O)OC)[C@H]1CC[C@@H](C)CC(=O)OC1=C(CCC(C)C)C(=O)c2ccccc2C1=O (stereo partly drawn)
> 1000 µM

Please give measured IC50 at 24 h of the following entry: C=C1CCC2[C@](C)(CCC[C@]2(C)C(=O)OC)[C@H]1CC[C@@H](C)CC(=O)OC1=C(CC=C(C)C)C(=O)c2ccccc2C1=O (stereo partly drawn) [Compound 8, Lapachoyl junicedrate methyl ester]
> 1000 µM
